For each of the compounds below, state its inhibition.
protocol description: NOD1 signaling inhibitors, primary screen, cell-based, luminescence, uHTS (AID 1578);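 also: HEK-293T reporter cells stimulated with the NOD1 agonist gamma-tri-DAP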
cond: NOD1-driven NF-kB luciferase reporter cells, at 4 µM, hits give high values
Among all 290,000 compounds or so, about 3,000 (1%) were called active. The full list was thinned out, with actives kept by preference.
A number alone suffices; assume %.

The reported inhibition of the compound CC(=O)Nc1ccc(S(=O)(=O)NCc2nc(-c3ccccc3)no2)cc1 was -7.6

Just so you know, measured inhibition for OCCN1CCN(c2nc(-c3ccccc3)c3cc(Br)ccc3n2)CC1 came out at -12.3

The recorded inhibition for entry OCCN1CCN(c2ncnc3ccc(Br)cc23)CC1 equals 66.7

# inhibition of OCCN1CCN(c2ncnc3sc(-c4ccccc4)cc23)CC1 = -0.1

The reported inhibition of the compound COc1cc(/C=C(/Sc2nnc(-c3ccc(F)cc3)o2)C(=O)O)ccc1OC(F)F was -21.8

inhibition recorded for this compound, O=C(O)/C(=C\c1cccs1)Sc1nnc(-c2ccc(F)cc2)o1 , is -11.6
